Experiment: Mouse Pharmacokinetic Studies
Format: in vivo
Settings: male BALB/c mice, 3 mg/kg IV tail bolus, plasma
Description: Samples were obtained from 3 male BALB/c mice at staggered time points. Each mouse was given a tail bolus injection of 3 mg/kg injection of Compound 70 formulated as an IV solution with DMSO: PEG400: Aqueous solution with 20% HP-β-CD (5:30:65, v:v:v) (adjusted by 1N HCl). Blood samples (collected into lithium heparin tubes) were obtained at predose, and at 5, 15, 30 min and at 1, 2-, 4-, 8- and 24-hour, post injection. Plasma was separated from blood and stored at −20° C. prior to analysis. […]

{"compound": "CC(C)Cn1c(=O)n(C[C@H](O)CN2CCc3ccccc3C2)c(=O)c2ccc(Br)cc21 [Compound 70]", "half-life": "1.56 h"}
